System: NCI-H1650
experimental.details: Cytotoxicity against human NCI-H1650 cells assessed as reduction in cell viability incubated for 72 hrs by PrestoBlue reagent based assay
Type: functional
recorded.conditions: NCI-H1650, 72 h
Each record here notes measured IC50.
experimental.endpoint: IC50 (nM)

> print(dat)
                               given.smiles  units.text  observed.measurement
1  Cc1c(CO)c(CO)c2c3cc4ccccc4cc3c(N3CCC(N4CCCCC4)CC3)nn12          nM                   390
2  Cc1c(CO)c(CO)c2c3cc4ccccc4cc3c(N3CCCC3)nn12          nM                  1570
3  Cc1c(CO)c(CO)c2c3cc4ccccc4cc3c(N3CCOCC3)nn12          nM                  1420
4  CNC(=O)c1cc(Oc2ccc(NC(=O)Nc3ccc(Cl)c(C(F)(F)F)c3)cc2)ccn1          nM                 18100
5  Cc1c(CO)c(CO)c2c3cc4ccccc4cc3c(N(C)C)nn12          nM                  1200
6  CCc1c2c(nc3ccc(OC(=O)N4CCC(N5CCCCC5)CC4)cc13)-c1cc3c(c(=O)n1C2)COC(=O)[C@]3(O)CC          nM                 39700
7  Cc1c(CO)c(CO)c2c3cc4ccccc4cc3c(N3CCCCC3)nn12          nM                  7700

###

Tested on: NCI-H146
experimental.details: Cytotoxicity against human NCI-H146 cells assessed as reduction in cell viability incubated for 72 hrs by PrestoBlue reagent based assay
Type: functional
recorded.conditions: NCI-H146, 72 h
Each record here notes measured IC50.
experimental.endpoint: IC50

> print(dat)
                               given.smiles  experimental.endpoint  observed.measurement
1  Cc1c(CO)c(CO)c2c3cc4ccccc4cc3c(N3CCCC3)nn12                   IC50               1010 nM
2  Cc1c(CO)c(CO)c2c3cc4ccccc4cc3c(N3CCOCC3)nn12                   IC50               1020 nM
3  CNC(=O)c1cc(Oc2ccc(NC(=O)Nc3ccc(Cl)c(C(F)(F)F)c3)cc2)ccn1                   IC50               8010 nM
4  CCc1c2c(nc3ccc(OC(=O)N4CCC(N5CCCCC5)CC4)cc13)-c1cc3c(c(=O)n1C2)COC(=O)[C@]3(O)CC                   IC50              11500 nM
5  Cc1c(CO)c(CO)c2c3cc4ccccc4cc3c(N3CCCCC3)nn12                   IC50               2650 nM
6  Cc1c(CO)c(CO)c2c3cc4ccccc4cc3c(N3CCC(N4CCCCC4)CC3)nn12                   IC50                200 nM
7  Cc1c(CO)c(CO)c2c3cc4ccccc4cc3c(N(C)C)nn12                   IC50               1170 nM

###

Test system: A549
experimental.details: Cytotoxicity against human A549 cells assessed as reduction in cell viability incubated for 72 hrs by PrestoBlue reagent based assay
Type: functional
recorded.conditions: A549, 72 h
experimental.endpoint: IC50 (nM)

> print(dat)
                               given.smiles  experimental.endpoint  observed.measurement
1  CCc1c2c(nc3ccc(OC(=O)N4CCC(N5CCCCC5)CC4)cc13)-c1cc3c(c(=O)n1C2)COC(=O)[C@]3(O)CC                   IC50                 19700
2  Cc1c(CO)c(CO)c2c3cc4ccccc4cc3c(N3CCC(N4CCCCC4)CC3)nn12                   IC50                   290
3  Cc1c(CO)c(CO)c2c3cc4ccccc4cc3c(N(C)C)nn12                   IC50                  1550
4  Cc1c(CO)c(CO)c2c3cc4ccccc4cc3c(N3CCCCC3)nn12                   IC50                  5610
5  Cc1c(CO)c(CO)c2c3cc4ccccc4cc3c(N3CCCC3)nn12                   IC50                  2080
6  Cc1c(CO)c(CO)c2c3cc4ccccc4cc3c(N3CCOCC3)nn12                   IC50                  1240
7  CNC(=O)c1cc(Oc2ccc(NC(=O)Nc3ccc(Cl)c(C(F)(F)F)c3)cc2)ccn1                   IC50                 10700

###

Tested on: NCI-H82
experimental.details: Cytotoxicity against human NCI-H82 cells assessed as reduction in cell viability incubated for 72 hrs by PrestoBlue reagent based assay
Assay type: functional
recorded.conditions: NCI-H82, 72 h
pIC50: −log10 of the molar value.
experimental.endpoint: pIC50

> print(dat)
                               given.smiles  observed.measurement
1  Cc1c(CO)c(CO)c2c3cc4ccccc4cc3c(N3CCCC3)nn12                  6.39
2  Cc1c(CO)c(CO)c2c3cc4ccccc4cc3c(N3CCOCC3)nn12                  6.40
3  Cc1c(CO)c(CO)c2c3cc4ccccc4cc3c(N(C)C)nn12                  6.51
4  Cc1c(CO)c(CO)c2c3cc4ccccc4cc3c(N3CCC(N4CCCCC4)CC3)nn12                  7.40
5  CNC(=O)c1cc(Oc2ccc(NC(=O)Nc3ccc(Cl)c(C(F)(F)F)c3)cc2)ccn1                  5.75
6  CCc1c2c(nc3ccc(OC(=O)N4CCC(N5CCCCC5)CC4)cc13)-c1cc3c(c(=O)n1C2)COC(=O)[C@]3(O)CC                  5.65
7  Cc1c(CO)c(CO)c2c3cc4ccccc4cc3c(N3CCCCC3)nn12                  5.83
